Source listed as ChEMBL document CHEMBL1268840.

Please respond with reported Kb for every item in the list.
# experimental.system: 5-hydroxytryptamine receptor 3A (Cavia porcellus)
# Sequence (O70212 whole entry): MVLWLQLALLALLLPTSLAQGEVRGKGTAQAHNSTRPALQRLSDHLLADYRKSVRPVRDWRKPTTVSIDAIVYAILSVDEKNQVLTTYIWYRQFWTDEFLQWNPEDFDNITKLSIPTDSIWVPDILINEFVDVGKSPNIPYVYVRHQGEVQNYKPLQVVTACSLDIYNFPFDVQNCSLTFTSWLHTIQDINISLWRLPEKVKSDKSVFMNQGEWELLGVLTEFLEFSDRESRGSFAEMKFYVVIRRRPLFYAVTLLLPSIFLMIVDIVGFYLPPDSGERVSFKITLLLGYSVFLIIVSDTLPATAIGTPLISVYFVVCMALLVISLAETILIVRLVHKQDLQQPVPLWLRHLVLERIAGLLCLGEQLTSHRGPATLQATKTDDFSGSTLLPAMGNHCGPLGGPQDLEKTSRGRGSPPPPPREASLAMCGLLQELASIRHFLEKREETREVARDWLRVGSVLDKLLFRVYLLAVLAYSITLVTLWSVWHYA
# experiment.notes: Antagonist activity at 5HT3 receptor in guinea pig ileum longitudinal muscle myenteric plexus assessed as inhibition of 2-methyl-5-HT-induced contraction
# Type: functional, tissue-based
# condition.notes: read-out: pA2 (converted)
Give bare numbers, in nM.

O=C(NNc1ccccc1)c1cnc2ccccc2n1 :: 1580

# return Kb for each item in the list
1. CCCCNC(=O)c1cnc2ccccc2n1
2. O=C(NC1CCCCC1)c1cnc2ccccc2n1
3. Cc1nccn1CC1CCc2c(c3ccccc3n2C)C1=O (stereo not drawn)
4. O=C(c1cnc2ccccc2n1)N1CCCC1

Response line:
50.1
1000
126
398

# return Kb for each item in the list
1. CC(=O)c1cccc(NC(=O)c2cnc3ccccc3n2)c1
2. O=C(Nc1ccc(NC(=O)c2cnc3ccccc3n2)cc1)c1ccccc1
3. O=C(Nc1ccccc1)c1cnc2ccccc2n1

Response line:
1. 794
2. 12600
3. 158

# return Kb for each item in the list
1. CCCNC(=O)c1cnc2ccccc2n1
2. Cc1c(Cl)cccc1NC(=O)c1cnc2ccccc2n1

Response line:
1. 200
2. 25.1
